The origin of these recorded values is patent US12577242B2.

# Test system: Bovine viral diarrhea (BVD) virus
# experiment.notes: Anti-BVDV CPE inhibition assay in MDBK cells
# measurement.setup: BVD virus approx. 100 TCID50, MDBK cells, four days, 50% inhibition of CPE
measured.endpoint: EC50 (nM)
Could you give me the number in nM? Just the number is fine.

get_value(item= `OCc1ccccc1-c1cc2ccn(Cn3nnc4ccccc43)cc-2n1` , readout=EC50) returns 81

* * *

# Tested on: Bovine viral diarrhea (BVD) virus
# experiment.notes: Anti-BVDV CPE inhibition assay in MDBK cells
# measurement.setup: Bovine viral diarrhea virus isolates and strains, MDBK, in Bos taurus, 96 h
measured.endpoint: pEC50
// returns pEC50 (minus log10 of molar concentration), number only

get_value(item= Cc1ccc2oc(Cn3ccc4nc(-c5ccccc5F)cc-4c3)nc2c1 [Compound XXV] , readout=pEC50) returns 8.40

get_value(item= Cc1c(-c2nc3ccn(Cc4nc5cc(Cl)ccc5s4)cc-3n2)cnn1C [CPD-4] , readout=pEC50) returns 7.08

get_value(item= Cc1c(-c2nc3ccn(Cc4cc(-c5cc(F)ccc5F)no4)cc-3n2)cnn1C [CPD-7] , readout=pEC50) returns 7.28

get_value(item= Cc1ccc2nc(Cn3ccc4nc(-c5ccccc5OC(F)F)nc-4c3)sc2c1 [CPD-21] , readout=pEC50) returns 6.39

get_value(item= Fc1ccc(-c2cc(Cn3ccc4nc(-c5ccccc5F)nc-4c3)on2)c(F)c1 [CPD-34] , readout=pEC50) returns 7.04

get_value(item= OCCOc1ccc(F)c(-c2cc3cn(Cn4nnc5ccccc54)ccc-3n2)c1 [Compound XIX] , readout=pEC50) returns 7.01

get_value(item= COc1ncccc1-c1nc2ccn(Cc3nc4cc(C)ccc4o3)cc-2n1 [CPD-16] , readout=pEC50) returns 6.93

get_value(item= Fc1ccc2nc(Cn3ccc4nc(-c5ccccc5F)nc-4c3)[nH]c2c1 [CPD-37] , readout=pEC50) returns 6.43

get_value(item= OCc1ccccc1-c1cc2cn(Cn3nnc4ccccc43)ccc-2n1 [Compound XXI] , readout=pEC50) returns 6.41

* * *

# experiment.notes: Cytotoxicity in MDBK cells (no BVD virus added)
# measurement.setup: bovine, MDBK cells (Madin-Darby bovine kidney), no virus added
// boundary case: CC50 at 4 days equal to 20 µM maps to rule not met; strictly smaller maps to rule met

Completed entries (count: 3):
Cc1ccc2nc(Cn3ccc4nc(-c5ccccc5CO)cc-4c3)[nH]c2c1 [XXXIII]
rule not met
Cc1ccc2oc(Cn3ccc4nc(-c5cnn(C)c5C)nc-4c3)nc2c1 [CPD-8]
rule not met
Cc1ccc2nc(Cn3ccc4nc(-c5ccccc5F)nc-4c3)sc2c1 [CPD-22]
rule not met

Strictly below 20 µM in CC50 at 4 days? Cc1ccc2nc(Cn3ccc4cc(-c5ccccc5CO)nc-4c3)[nH]c2c1 [Compound XVI] rule not met

Strictly below 20 µM in CC50 at 4 days? Cc1ccc2oc(Cn3ccc4nc(-c5ccccc5F)cc-4c3)nc2c1 [Compound XXV] rule met

Strictly below 20 µM in CC50 at 4 days? Cc1nn(C)c(C)c1-c1nc2ccn(Cc3cc(-c4cc(F)ccc4F)no3)cc-2n1 [CPD-13] rule not met

* * *

# experiment.notes: Cytotoxicity in MDBK cells (no BVD virus added)
# measurement.setup: bovine, MDBK cells (Madin-Darby bovine kidney), no virus added
measured.endpoint: CC50 at 4 days (µM)
Could you give me the number in µM? Just the number is fine.

Some entries whose results are on file:
Cc1ccc2nc(Cn3ccc4cc(-c5ccccc5F)nc-4c3)sc2c1
4
COc1ncccc1-c1cc2cn(Cc3nc4cc(C)ccc4o3)ccc-2n1
21
COc1ccccc1-c1nc2ccn(Cc3cc(-c4cc(F)ccc4F)no3)cc-2n1
19

get_value(item= `COc1ncccc1-c1cc2ccn(Cc3nc4cc(C)ccc4o3)cc-2n1` , readout=CC50 at 4 days) returns 4

get_value(item= `Cc1ccc2nc(Cn3ccc4nc(-c5cnn(C)c5C)nc-4c3)sc2c1` , readout=CC50 at 4 days) returns 231

get_value(item= `Cc1ccc2oc(Cn3ccc4nc(-c5ccccc5CO)cc-4c3)nc2c1` , readout=CC50 at 4 days) returns 22

get_value(item= `OCCOc1ccc(F)c(-c2cc3ccn(Cn4nnc5ccccc54)cc-3n2)c1` , readout=CC50 at 4 days) returns 22

get_value(item= `Fc1ccc(OC(F)(F)F)cc1-c1cc2ccn(Cn3nnc4ccccc43)cc-2n1` , readout=CC50 at 4 days) returns 20

get_value(item= `COc1ccccc1-c1cc2cn(Cn3nnc4ccccc43)ccc-2n1` , readout=CC50 at 4 days) returns 39

get_value(item= `COc1ncccc1-c1cc2ccn(Cn3nnc4ccccc43)cc-2n1` , readout=CC50 at 4 days) returns 22

get_value(item= `Cc1c(-c2cc3cn(Cn4nnc5ccccc54)ccc-3n2)cnn1C` , readout=CC50 at 4 days) returns 12

get_value(item= `Cc1ccc2nc(Cn3ccc4cc(-c5cnn(C)c5C)nc-4c3)sc2c1` , readout=CC50 at 4 days) returns 17

get_value(item= `Cc1c(-c2nc3ccn(Cc4cc(-c5cc(F)ccc5F)no4)cc-3n2)cnn1C` , readout=CC50 at 4 days) returns 212

get_value(item= `Cc1c(-c2nc3ccn(Cn4nnc5ccccc54)cc-3n2)cnn1C` , readout=CC50 at 4 days) returns 22

get_value(item= `Cc1ccc2nc(Cn3ccc4nc(-c5ccccc5F)cc-4c3)sc2c1` , readout=CC50 at 4 days) returns 3

get_value(item= `Cc1ccc(-c2nc3ccn(Cc4cc(-c5cc(F)ccc5F)no4)cc-3n2)s1` , readout=CC50 at 4 days) returns 24

get_value(item= `COc1ncccc1-c1cc2cn(Cc3nc4ccc(C)cc4s3)ccc-2n1` , readout=CC50 at 4 days) returns 10

* * *

# System: MDBK cells (Madin-Darby bovine kidney)
# experiment.notes: Cytotoxicity in MDBK cells (no BVD virus added)
# measurement.setup: MDBK cells, no virus, 50% toxic effects
measured.endpoint: CC50

get_value(item= `OCc1ccccc1-c1cc2ccn(Cn3nnc4ccccc43)cc-2n1` , readout=CC50) returns > 50 µM

* * *

Attribute: pEC50
# Tested on: Bovine viral diarrhea (BVD) virus
# experiment.notes: Anti-BVDV CPE inhibition assay in MDBK cells
# measurement.setup: Bovine viral diarrhea virus isolates and strains, MDBK, in Bos taurus, 96 h
// returns pEC50 (minus log10 of molar concentration), number only

Some entries whose results are on file:
Cc1nn(C)c(C)c1-c1nc2ccn(Cc3cc(-c4cc(F)ccc4F)no3)cc-2n1
7.02
Cc1ccc2oc(Cn3ccc4nc(-c5cnn(C)c5C)nc-4c3)nc2c1
7.10
Cc1ccc2sc(Cn3ccc4nc(-c5ccccc5F)nc-4c3)nc2c1
7.08

Note: attention shifts to another entry.
Field pEC50 (system: Bovine viral diarrhea (BVD) virus) for entry `Fc1cccc(-c2nc3ccn(Cc4cc(-c5cc(F)ccc5F)no4)cc-3n2)c1` = 7.08

* * *

# Test system: Bovine viral diarrhea (BVD) virus
# experiment.notes: Anti-BVDV CPE inhibition assay in MDBK cells
# measurement.setup: Bovine viral diarrhea virus isolates and strains, MDBK, in Bos taurus, 96 h
Attribute: log10 of EC50
Heads up, the numbers here are log10 of EC50 in nM units.

Some entries whose results are on file:
Fc1ccccc1-c1nc2ccn(Cc3ccc(Cl)s3)cc-2n1
2.11
Cc1cc(-c2nc3ccn(Cc4cc(-c5cc(F)ccc5F)no4)cc-3n2)cs1
2.60
Cc1c(-c2cc3ccn(Cn4nnc5ccccc54)cc-3n2)cnn1C
2.53
Cc1ccc2nc(Cn3ccc4nc(-c5ccccc5F)nc-4c3)sc2c1
1.28
Cc1scc(-c2nc3ccn(Cc4cc(-c5cc(F)ccc5F)no4)cc-3n2)c1C
2.61
Cc1ccc2nc(Cn3ccc4nc(-c5cc(OCCO)ccc5F)nc-4c3)sc2c1
2.35

get_value(item= `Cc1ccc2oc(Cn3ccc4cc(-c5ccccc5F)nc-4c3)nc2c1` , readout=log10 of EC50) returns 0.08

get_value(item= `COc1ccccc1-c1nc2ccn(Cc3cc(-c4cc(F)ccc4F)no3)cc-2n1` , readout=log10 of EC50) returns 0.60

get_value(item= `Cc1ccc2nc(Cn3ccc4nc(-c5ccccc5CO)cc-4c3)sc2c1` , readout=log10 of EC50) returns 1.28

get_value(item= `Cc1ccc2oc(Cn3ccc4nc(-c5cn(C)nc5C)nc-4c3)nc2c1` , readout=log10 of EC50) returns 2.41

get_value(item= `N#Cc1ccc(-c2cc3ccn(Cn4nnc5ccccc54)cc-3n2)cc1` , readout=log10 of EC50) returns 1.20

get_value(item= `Cc1ccc2nc(Cn3ccc4nc(-c5ccccc5F)cc-4c3)sc2c1` , readout=log10 of EC50) returns 1.20

get_value(item= `COc1ncccc1-c1nc2ccn(Cc3cc(-c4cc(F)ccc4F)no3)cc-2n1` , readout=log10 of EC50) returns 1.86

get_value(item= `Cc1c(-c2cc3cn(Cn4nnc5ccccc54)ccc-3n2)cnn1C` , readout=log10 of EC50) returns 1.88
